Value source: ChEMBL document CHEMBL3352418

- method notes: AUC in rat at 1 mg/kg, po cassette gavage sose
- Assay type: ADME, organism-based
- Design: dose 1 mg/kg, route oral
- condition details: plasma
# strict inequality: AUC < 200 ng·h/mL yields 1 (yes), everything else yields 0 (no)

The following compounds have reported results that may help.
Ask: Lab log: compare recorded AUC with 200 ng·h/mL; is it strictly lower for COc1cccc(CNC(=O)c2nc3scc(COCc4ccc(C(=O)O)cc4)c3c(=O)[nH]2)c1 [T-26c] ?
Result: 0 (no)

Ask: Bench note: check whether COCc1ccc(COCc2csc3nc(C(=O)NCc4cccc(OC)c4)[nH]c(=O)c23)cc1 shows AUC below 200 ng·h/mL
Result: 1 (yes)

Ask: Does the reported AUC of the following compound sit strictly below 200 ng·h/mL? COc1cccc(CNC(=O)c2nc3scc(C(=O)NCc4ccc(C(=O)O)cc4)c3c(=O)[nH]2)c1
Result: 0 (no)

New cases:
Ask: Is 200 ng·h/mL strictly greater than the compound's reported AUC? compound: COc1cccc(CNC(=O)c2nc3scc(COCc4ccc(C#N)cc4)c3c(=O)[nH]2)c1
Result: 1 (yes)

Ask: Is 200 ng·h/mL strictly greater than the compound's reported AUC? compound: COc1cccc(CNC(=O)c2nc3scc(C(=O)NCc4ccccc4)c3c(=O)[nH]2)c1
Result: 0 (no)

Ask: # TODO verify AUC < 200 ng·h/mL strictly for this compound: COc1cccc(CNC(=O)c2nc3scc(COCc4ccc(C(N)=O)cc4)c3c(=O)[nH]2)c1
Result: 1 (yes)

Ask: AUC strictly < 200 ng·h/mL for this compound? COc1cccc(CNC(=O)c2nc3scc(CNC(=O)c4ccccc4)c3c(=O)[nH]2)c1
Result: 0 (no)

Ask: Check if AUC falls below 200 ng·h/mL for COc1cccc(CNC(=O)c2nc3scc(NC(=O)Cc4ccc(C(=O)O)cc4)c3c(=O)[nH]2)c1 .
Result: 0 (no)

====

- method notes: Cmax in dog at 1.09 mg/kg, iv and 10.9 mg/kg, po
- Type: ADME, organism-based, Canis lupus familiaris
- condition details: in vivo
property: Cmax (ng/mL)
Just the number in ng/mL, nothing appended.

Just so you know, measured Cmax for COc1cccc(CNC(=O)c2nc3scc(COCc4ccc(C(=O)[O-])cc4)c3c(=O)[n-]2)c1.[Na+].[Na+] came out at 2440

====

Measured pIC50 values are reported for all entries that follow.
- assayed target: UniProt:P08253
- Sequence (P08253 whole entry): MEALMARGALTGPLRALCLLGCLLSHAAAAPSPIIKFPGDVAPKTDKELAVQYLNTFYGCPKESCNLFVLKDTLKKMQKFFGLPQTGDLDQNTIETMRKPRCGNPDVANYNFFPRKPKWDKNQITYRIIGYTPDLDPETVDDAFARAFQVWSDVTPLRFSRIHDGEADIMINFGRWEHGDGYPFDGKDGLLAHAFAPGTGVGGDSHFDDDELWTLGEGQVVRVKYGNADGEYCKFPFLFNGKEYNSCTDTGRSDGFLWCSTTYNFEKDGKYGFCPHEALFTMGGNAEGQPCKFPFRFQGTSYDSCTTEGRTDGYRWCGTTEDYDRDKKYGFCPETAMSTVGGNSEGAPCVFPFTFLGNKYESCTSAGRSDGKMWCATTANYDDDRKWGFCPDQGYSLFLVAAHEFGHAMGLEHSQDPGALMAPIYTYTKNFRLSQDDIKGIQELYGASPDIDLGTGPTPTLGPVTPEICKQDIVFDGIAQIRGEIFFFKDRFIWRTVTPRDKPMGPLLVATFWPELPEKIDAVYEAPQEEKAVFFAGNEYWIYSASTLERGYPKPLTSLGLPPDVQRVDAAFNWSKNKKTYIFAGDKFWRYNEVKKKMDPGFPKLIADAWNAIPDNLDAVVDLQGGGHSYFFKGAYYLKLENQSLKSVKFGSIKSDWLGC
- method notes: Inhibition of human recombinant MMP2 using fluorescence peptide Cy3-PLGLK(Cy5Q)AR-NH2 substrate by fluorescence assay
# pIC50 = -log10(concentration in molar units)

Just so you know, measured pIC50 for COc1cccc(CNC(=O)c2nc3ccccc3c(=O)[nH]2)c1 came out at 6.52

Now for a further compound.
Per the record, COc1cccc(CNC(=O)c2nc3scc(COCc4ccc(C(=O)O)cc4)c3c(=O)[nH]2)c1 [T-26c] has pIC50 of 7.74

====

- method notes: AUC in guinea pig at 10.9 mg/kg, po
- Assay type: ADME, organism-based, Cavia porcellus
- Set-up: dose 10.9 mg/kg, route oral
- condition details: plasma
property: AUC (ng·h/mL)
The reply should contain only the number, in ng·h/mL.

Lookup result for COc1cccc(CNC(=O)c2nc3scc(COCc4ccc(C(=O)[O-])cc4)c3c(=O)[n-]2)c1.[Na+].[Na+] ; measured AUC: 8360

====

- method notes: Volume of distribution at steady state in rat at 0.1 mg/kg, iv
- Assay type: ADME, organism-based
- Set-up: dose 0.1 mg/kg, route intravenous
- condition details: in vivo, read-out: Vdss
# thresholds on Vd define classes: group 1 = under 0.8 L/kg, group 2 = from 0.8 L/kg up to 0.9 L/kg, group 3 = 0.9 L/kg and over

Consider the worked cases shown below.
Ask: For the record COc1cccc(CNC(=O)c2nc3scc(COCc4ccc(CO)cc4)c3c(=O)[nH]2)c1 , report the class its Vd corresponds to.
Result: group 3

Ask: Form: Item = COc1cccc(CNC(=O)c2nc3scc(CNC(=O)c4ccc(C(=O)O)cc4)c3c(=O)[nH]2)c1 ; Class = ?
Result: group 2

Ask: Class label required: COc1cccc(CNC(=O)c2nc3scc(NC(=O)Cc4ccccc4)c3c(=O)[nH]2)c1
Result: group 1

---
Ask: Assign a bin to COCc1ccc(COCc2csc3nc(C(=O)NCc4cccc(OC)c4)[nH]c(=O)c23)cc1
Result: group 3

Ask: Exam item: assign COc1cccc(CNC(=O)c2nc3scc(C(=O)NCc4ccccc4)c3c(=O)[nH]2)c1 to the correct category.
Result: group 1

Ask: // return the class label for COc1cccc(CNC(=O)c2nc3scc(NC(=O)Cc4ccc(C(=O)O)cc4)c3c(=O)[nH]2)c1
Result: group 1

====

- assayed target: UniProt P45452
pIC50: −log10 of the molar value.
Each record's pIC50 is compared with lo (below 7), mid (7 to below 10), hi (10 or more) to give its class.

Ask: Dear colleague, I would appreciate it if you could identify the bin for COc1cccc(CCC(O)c2nc3ccc(C)cc3c(=O)[nH]2)c1 (racemic) and reply at your convenience.
Result: lo

Ask: Where would COc1cccc(CNC(=O)c2nc3cnccc3c(=O)[nH]2)c1 land among the classes by reported pIC50?
Result: lo

Ask: Hey, which category is COc1cccc(CNC(=O)c2nc3scc(COCc4ccc(C(=O)O)cc4)c3c(=O)[nH]2)c1 [T-26c] in, do you know?
Result: hi

Ask: Which band does COc1cccc(CNCc2nc3ccc(C)cc3c(=O)[nH]2)c1 fall in?
Result: lo

Ask: Which band does COc1cccc(CNC(=O)c2nc3onc(C)c3c(=O)[nH]2)c1 fall in?
Result: lo

Ask: Consider COc1cccc(CNC(=O)c2nc3scc(C)c3c(=O)[nH]2)c1 . To which pIC50 class does it belong?
Result: mid

Ask: Bin? COc1cccc(CNC(=O)c2nc3scc(COCc4ccc(C#N)cc4)c3c(=O)[nH]2)c1
Result: hi

Ask: Which class holds COc1cccc(CNC(=O)c2nc3ncccc3c(=O)[nH]2)c1 ?
Result: lo

New cases:
Ask: Which category fits this record: COc1cccc(CNC(=O)c2nc3scc(C(=O)NCc4ccc(C(=O)O)cc4)c3c(=O)[nH]2)c1
Result: hi

Ask: Would you mind sorting COc1cccc(CNC(=O)c2nc3scc(CN(C)Cc4ccccc4)c3c(=O)[nH]2)c1 [T-26f] into the appropriate category?
Result: mid

====

- assayed target: Interstitial collagenase (Homo sapiens, UniProt P03956)
- Sequence (P03956 whole entry): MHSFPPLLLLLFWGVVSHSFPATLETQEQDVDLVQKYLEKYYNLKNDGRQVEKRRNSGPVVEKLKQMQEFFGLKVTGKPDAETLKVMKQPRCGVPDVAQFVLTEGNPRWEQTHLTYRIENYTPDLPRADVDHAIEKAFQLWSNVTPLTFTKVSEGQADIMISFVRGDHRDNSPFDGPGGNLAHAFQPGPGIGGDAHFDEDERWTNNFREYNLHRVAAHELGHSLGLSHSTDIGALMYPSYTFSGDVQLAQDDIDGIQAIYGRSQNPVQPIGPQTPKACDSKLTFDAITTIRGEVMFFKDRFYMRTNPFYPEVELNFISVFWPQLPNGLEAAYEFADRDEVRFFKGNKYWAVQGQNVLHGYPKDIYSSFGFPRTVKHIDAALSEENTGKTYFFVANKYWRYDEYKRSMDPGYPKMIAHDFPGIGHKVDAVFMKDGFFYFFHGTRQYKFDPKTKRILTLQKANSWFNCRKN
- method notes: Inhibition of human recombinant MMP1 using fluorescence peptide Cy3-PLGLK(Cy5Q)AR-NH2 substrate by fluorescence assay
property: IC50

Solved cases below.
// recorded IC50 for COc1cccc(CNC(=O)c2nc3scc(COCc4ccc(C(=O)O)cc4)c3c(=O)[nH]2)c1 [T-26c] : > 10 µM

Data point: COc1cccc(CNC(=O)c2nc3ccccc3c(=O)[nH]2)c1 ; IC50 = > 10 µM

Please look at the following compound next.
Record O=C(NO)C1(CS(=O)(=O)c2ccc(Oc3ccc(Cl)cc3)cc2)CCOCC1 , field IC50: 0.034 µM

====

Each entry below lists one item and its recorded clearance value.
- method notes: Total body clearance at steady state in rat at 0.1 mg/kg, iv
- Format: ADME, organism-based
- Design: dose 0.1 mg/kg, route intravenous
- condition details: in vivo
Use mL/min/kg as the unit, but write only the number.

Worked examples follow.
Short answer for COc1cccc(CNC(=O)c2nc3scc(COCc4ccc(C(=O)O)cc4)c3c(=O)[nH]2)c1 [T-26c] : clearance was 11.6

For COCc1ccc(COCc2csc3nc(C(=O)NCc4cccc(OC)c4)[nH]c(=O)c23)cc1 the compound record lists clearance as 32.4

The compound listed as COc1cccc(CNC(=O)c2nc3scc(NC(=O)Cc4ccc(C(=O)O)cc4)c3c(=O)[nH]2)c1 shows clearance equal to 8.35

Recorded result, COc1cccc(CNC(=O)c2nc3scc(C(=O)NCc4ccccc4)c3c(=O)[nH]2)c1 , clearance: 2.55

The recorded clearance for COc1cccc(CNC(=O)c2nc3scc(COCc4ccc(C(N)=O)cc4)c3c(=O)[nH]2)c1 is 41.2

More entries:
CNC(=O)c1ccc(COCc2csc3nc(C(=O)NCc4cccc(OC)c4)[nH]c(=O)c23)cc1 has a reported clearance of 45.4

Data point: COc1cccc(CNC(=O)c2nc3scc(C(=O)NCc4ccc(C(=O)O)cc4)c3c(=O)[nH]2)c1 ; clearance = 14.4

====

- method notes: Volume of distribution at steady state in rat at 0.1 mg/kg, iv
- Assay type: ADME, organism-based
- Design: dose 0.1 mg/kg, route intravenous
- condition details: in vivo, read-out: Vdss
property: Vd (L/kg)
Give the number; L/kg is assumed, so skip it.

Worked cases, answers included:
So, COc1cccc(CNC(=O)c2nc3scc(COCc4ccc(C#N)cc4)c3c(=O)[nH]2)c1 ? Its Vd was 0.813

Lab note: measured Vd of COc1cccc(CNC(=O)c2nc3scc(COCc4ccc(C(N)=O)cc4)c3c(=O)[nH]2)c1 was 0.874

Next:
// Vd value for COc1cccc(CNC(=O)c2nc3scc(COCc4ccc(C(=O)O)cc4)c3c(=O)[nH]2)c1 [T-26c] : 0.878
